Test system: Fibroblast
Assay info: Incucyte cell viability with human fibroblast; note: unitless GR value; below 1 slowed growth and below 0 cell loss
Format: toxicity, cell-based
Run conditions: 6 h, 10 µM, compound concentration 10 uM, replicate number 2
# Growth Rate annotations
// response body must contain only the number

Study these solved cases before continuing.
// Growth Rate value for CC(C)(C)C(=O)NCc1ccc(Cl)c(C(=O)Nc2ncc[nH]2)c1 : -0.3

Please fill in: Growth Rate reported for NC(=O)c1ccc(-c2nc(-c3ccc4c(c3)OCCO4)c(-c3ccccn3)[nH]2)cc1 = 0.41

The recorded Growth Rate for O=C(NS(=O)(=O)N1CCC1)c1cc(C2CC2)c(OCC23CC4CC(CC(C4)C2)C3)cc1F is -1

Record CC(C=CC1=C(C)CCCC1(C)C)=CC=CC(C)=CC(=O)O , field Growth Rate: 0.99

Entry CN[C@@H](C)C(=O)N[C@H]1CCCC[C@H]2CC[C@@H](C(=O)N[C@@H](c3ccccc3)c3cn(CCCCc4ccc(CCCCn5cc([C@@H](NC(=O)[C@@H]6CC[C@@H]7CCCC[C@H](NC(=O)[C@H](C)NC)C(=O)N76)c6ccccc6)nn5)cc4)nn3)N2C1=O ; Growth Rate = 0.06

Entry under test: COc1cnccc1Nc1nc(-c2nn(Cc3c(F)cc(OCCO)cc3F)c3ccccc23)ncc1OC . Its Growth Rate was 0.31

Continuing:
Growth Rate measured on CC(C)C[C@H](NC(=O)c1cc2ccccc2s1)C(=O)N1CCN(C(=O)[C@H](CO)NS(=O)(=O)c2ccc(Cl)cc2Cl)CC1 = -0.86

Notebook: Cn1cc(-n2cnc3c(NCc4nc5cc(Cl)c(Cl)cc5[nH]4)nc(N4CCOCC4)nc32)cn1 , Growth Rate read as -0.32

The measured values listed here are drawn from ChEMBL document CHEMBL5303304.
